# Procedure summary: Elimination half life in BALB/cAnNCrlCrlj mouse plasma at 0.5 umol/kg administered intranasally
# Format: ADME, cell-free
# Condition summary: inhaled or intranasal, read-out: beta t1/2 (converted)
Readout name: half-life (min)
One number for each entry, in min.

Bench note: what half-life did CCCCCCCC(=O)OC[C@@H](O)[C@@H](OC)[C@@H]1OC(C(=O)O)=C[C@H](NC(=N)N)[C@H]1NC(C)=O [LANINAMIVIR OCTANOATE] show?
36

###

# Procedure summary: Tmax in BALB/cAnNCrlCrlj mouse plasma at 0.5 umol/kg administered intranasally
# Assay type: ADME, cell-free
# Condition summary: inhaled or intranasal
Readout name: Tmax
Entry format: amount then unit.

>>> result("CO[C@@H]([C@@H]1OC(C(=O)O)=C[C@H](NC(=N)N)[C@H]1NC(C)=O)[C@H](O)CO")
"30 min"

Moving on to another compound below.
Consider the compound shown here: CCCCCCCC(=O)OC[C@@H](O)[C@@H](OC)[C@@H]1OC(C(=O)O)=C[C@H](NC(=N)N)[C@H]1NC(C)=O [LANINAMIVIR OCTANOATE] What is its recorded Tmax?
30 min
